study target: human mPGES-1 (Homo sapiens)
Construct: made in house; host or cells: COS-1 cells (transient transfection; microsomal fraction used as enzyme)
experiment description: Test for mPGES-1 inhibitory activity (microsomal enzyme, PGE2 EIA)
Type: biochemical
experimental context: microsomes of COS-1 cells transfected with human mPGES-1 cDNA; PGH2 1 μM; 4° C., 4 minutes; PGE2 by EIA; read-out: h mPGES1 IC50
pIC50: −log10 of the molar value.
readout: pIC50

Record excerpt, results attached:
                           structure_string  experimental_value
0  Cc1cc(=O)[nH]c(-c2c(C(F)(F)F)ccc(CNC(=O)[C@H]3C[C@H](OCc4cc(Cl)ccc4F)C3)c2F)n1              > 9.00
1  O=C(NCc1ccc(C(F)(F)F)c(-c2nc(C(F)(F)F)cc(=O)[nH]2)c1F)C1CN(C(=O)Cc2ccc(F)cc2)C1                7.62

Challenge: Please report the measured pIC50 for CCc1nc(-c2c(C(F)(F)F)ccc(CNC(=O)[C@H]3C[C@H](OCc4ccc(C(F)(F)F)cc4)C3)c2F)[nH]c(=O)c1F
Response given: > 9.00

Challenge: Quick one: give measured pIC50 for CCc1nc(-c2c(C(F)(F)F)ccc(CNC(=O)[C@H]3C[C@H](OCc4ccccc4Cl)C3)c2F)[nH]c(=O)c1F
Response given: > 9.00

Challenge: Fill in pIC50 for record Cc1nc(-c2c(C(F)(F)F)ccc(CNC(=O)[C@H]3C[C@H](OCc4ccc(F)cc4Cl)C3)c2F)[nH]c(=O)c1F
Response given: > 9.00

Challenge: In one line, give reported pIC50 of the entry O=c1cc(C(F)(F)F)nc(-c2c(C(F)(F)F)ccc(CNC(=O)[C@H]3C[C@H](Oc4ccc(C(F)(F)F)cn4)C3)c2F)[nH]1 .
Response given: > 9.00

----------
study target: human mPGES-1 (Homo sapiens)
Construct: made in house; host or cells: COS-1 cells (transient transfection; microsomal fraction used as enzyme)
experiment description: Test for mPGES-1 inhibitory activity (microsomal enzyme, PGE2 EIA)
Format: biochemical
experimental context: microsomes of COS-1 cells transfected with human mPGES-1 cDNA; PGH2 1 μM; 4° C., 4 minutes; PGE2 by EIA; read-out: h mPGES1 IC50
readout: IC50 (nM)
# number only, unit nM dropped from output

Answered examples (2):
>>> print(df.to_string())
                           structure_string  readout  experimental_value
0  CC(C)CO[C@H]1C[C@@H](C(=O)NCc2ccc(C(F)(F)F)c(-c3nc(C(F)(F)F)cc(=O)[nH]3)c2F)C1     IC50                 5.8
1  CCc1cc(=O)[nH]c(-c2c(C(F)(F)F)ccc(CNC(=O)[C@H]3C[C@H](OCc4cc(Cl)ccc4F)C3)c2F)n1     IC50                 8.8

We next turn to a different compound, shown below.
Challenge: Give IC50 for the following compound: Cc1cc(=O)[nH]c(-c2c(C(F)(F)F)ccc(CNC(=O)[C@H]3C[C@H](OCc4cccc(F)c4)C3)c2F)n1
Response given: 10

----------
study target: human mPGES-1 (Homo sapiens, UniProt O14684)
Construct: made in house; host or cells: COS-1 cells (transient transfection; microsomal fraction used as enzyme)
experiment description: Test for mPGES-1 inhibitory activity (microsomal enzyme, PGE2 EIA)
Format: biochemical
experimental context: microsomes from COS-1 cells transfected with human mPGES-1 cDNA; substrate PGH2 1 μM; 4° C., 4 minutes; PGE2 measured by EIA; read-out: h mPGES1 IC50
The following compounds are shown together with reported IC50 values.

                           structure_string  experimental_value
0  O=C(NCc1ccc(C(F)(F)F)c(-c2nc(C(F)F)cc(=O)[nH]2)c1F)C1CCN(c2ncc(Cl)cc2Cl)CC1               15 nM
1  Cc1nc(-c2c(C(F)(F)F)ccc(CNC(=O)C3(F)CCN(c4ccc(C(F)(F)F)cn4)CC3)c2F)[nH]c(=O)c1F              < 1 nM
2  Cc1cc(=O)[nH]c(-c2c(C(F)(F)F)ccc(CNC(=O)C3CCN(c4ccc(Cl)c(F)c4)CC3)c2F)n1              < 1 nM
3  Cc1nc(-c2c(C(F)(F)F)ccc(CNC(=O)[C@H]3CC[C@H](OCc4cccc(C(F)(F)F)c4)CC3)c2F)[nH]c(=O)c1F              < 1 nM
4  O=C(NCc1ccc(C(F)(F)F)c(-c2nc(C(F)(F)F)cc(=O)[nH]2)c1F)C1CCN(c2cccc(Cl)c2Cl)CC1              8.4 nM

Please find the next compound below.
Challenge: Consider the compound O=c1cc(C(F)(F)F)nc(-c2c(C(F)(F)F)ccc(CNC(=O)[C@H]3CC[C@H](OCc4cccc(Cl)c4)CC3)c2F)[nH]1 and give its recorded IC50.
Response given: < 1 nM

----------
# IC50 per entry
study target: human mPGES-1 (Homo sapiens)
Construct: made in house; host or cells: COS-1 cells (transient transfection; microsomal fraction used as enzyme)
Sequence (O14684 1-152): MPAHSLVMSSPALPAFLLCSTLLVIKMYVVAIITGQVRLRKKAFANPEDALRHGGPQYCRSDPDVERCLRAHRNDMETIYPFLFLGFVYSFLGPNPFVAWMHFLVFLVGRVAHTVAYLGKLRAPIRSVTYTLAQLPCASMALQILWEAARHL
experiment description: Test for mPGES-1 inhibitory activity (microsomal enzyme, PGE2 EIA)
Assay type: biochemical
experimental context: microsomes from COS-1 cells transfected with human mPGES-1 cDNA; substrate PGH2 1 μM; 4° C., 4 minutes; PGE2 measured by EIA; read-out: h mPGES1 IC50
Report the value in nM with no unit label.

                           structure_string                  study_target  experimental_value
0  Cc1cccc2ccc(N3CCC(C(=O)NCc4ccc(C(F)(F)F)c(-c5nc(C(F)F)cc(=O)[nH]5)c4F)CC3)nc12  human mPGES-1 (Homo sapiens)                 2.1
1  O=C(NCc1ccc(C(F)(F)F)c(-c2nc(C(F)(F)F)cc(=O)[nH]2)c1F)c1ccc(-c2ccc3nccn3n2)cc1  human mPGES-1 (Homo sapiens)                28.7
2  CCc1cc(=O)[nH]c(-c2c(C(F)(F)F)ccc(CNC(=O)C3CCN(c4cccc(C)n4)CC3)c2F)n1  human mPGES-1 (Homo sapiens)                  76
3  O=C(NCc1ccc(C(F)(F)F)c(-c2nc(C(F)(F)F)cc(=O)[nH]2)c1F)C1CCN(c2ccc(OC(F)(F)F)cn2)CC1  human mPGES-1 (Homo sapiens)                  15

Challenge: Note IC50 for the compound shown: O=C(NCc1ccc(C(F)(F)F)c(-c2nc(C(F)F)cc(=O)[nH]2)c1F)C1CCN(c2ccc(C(F)(F)F)cn2)CC1
Response given: 11

Challenge: Please indicate IC50 recorded for O=c1cc(C(F)(F)F)nc(-c2c(C(F)(F)F)ccc(CNC(=O)[C@H]3C[C@@H](OCc4ccccc4C(F)(F)F)C3)c2F)[nH]1
Response given: 28

Challenge: Tell me its IC50 given O=c1cc(C(F)(F)F)nc(-c2c(C(F)(F)F)ccc(CNC(=O)[C@H]3CC[C@H](OCc4ccc(F)c(F)c4)CC3)c2F)[nH]1 as the entry.
Response given: 21

Challenge: Please give measured IC50 of the following entry: O=c1cc(C(F)(F)F)nc(-c2c(C(F)(F)F)ccc(CNC(=O)[C@H]3CC[C@H](OCc4ccc(F)cc4F)CC3)c2F)[nH]1
Response given: 5.2

Challenge: Supply IC50 value. Item: CCc1nc(-c2c(C(F)(F)F)ccc(CNC(=O)[C@H]3CC[C@H](OCc4ccc(Cl)cc4)CC3)c2F)[nH]c(=O)c1F
Response given: 19

----------
study target: human mPGES-1 (Homo sapiens)
Construct: made in house; host or cells: COS-1 cells (transient transfection; microsomal fraction used as enzyme)
experiment description: Test for mPGES-1 inhibitory activity (microsomal enzyme, PGE2 EIA)
Format: biochemical
experimental context: microsomes of COS-1 cells transfected with human mPGES-1 cDNA; PGH2 1 μM; 4° C., 4 minutes; PGE2 by EIA; read-out: h mPGES1 IC50
readout: IC50 (nM)
Report only the number, with the unit nM understood.

In [3]: df
Out[3]:
                                   compound  experimental_value
0  O=c1cc(C(F)F)nc(-c2c(C(F)(F)F)ccc(CNC(=O)[C@H]3C[C@H](OCc4cc(F)cc(Cl)c4)C3)c2F)[nH]1 [Example 177]                  10

Challenge: Provide only the value of recorded IC50 for Cc1nc(-c2c(C(F)(F)F)ccc(CNC(=O)[C@H]3C[C@H](OCc4cccc(F)c4)C3)c2F)[nH]c(=O)c1F [Example 222]
Response given: 15

All figures here come from patent US20250340557A1.
